Sourced from PubChem BioAssay (NCI)

test system: U251 CNS
The reply should name one outcome from active, inactive

As a guide, the following entries are already answered.
{"molecule": "NS(=O)(=O)c1ccc(N=Nc2c(O)[nH]c3ccc(C(=O)NCCc4cnc[nH]4)cc23)cc1", "target.system": "U251 CNS", "classification": "inactive"}
{"molecule": "CC(C)C(=O)Nc1ccc(-c2nc(-c3cccc(OCCN4CCOCC4)c3)c(-c3ccnc(Br)c3)[nH]2)cc1", "target.system": "U251 CNS", "classification": "inactive"}
{"molecule": "COc1cccc(CCNC(=O)CC(c2ccccc2)(c2ccccc2)c2ccccc2)c1", "target.system": "U251 CNS", "classification": "inactive"}
{"molecule": "C[C@@H]1CC[C@H]2[C@@H](C)C(OC/C=C/COC3O[C@@H]4O[C@@]5(C)CC[C@H]6[C@H](C)CC[C@@H]([C@H]3C)[C@@]46OO5)O[C@@H]3O[C@@]4(C)CC[C@@H]1[C@]32OO4 (stereo partly specified)", "target.system": "U251 CNS", "classification": "active"}
{"molecule": "Cc1cncc(-c2nc(NCCc3c[nH]c4ccccc34)c3ncn(C(C)C)c3n2)c1", "target.system": "U251 CNS", "classification": "inactive"}

# evaluate next
[ask] Recorded test call requested for CCCCOC(=O)/C=C\C(=O)NC(N)=O
[reply] inactive
